A collection of compounds and their measured Emax
MEASURED_TARGET: human PPARγ2 (Homo sapiens, UniProt P37231)
Construct: the amino acids 182 to 505 of human PPARγ2; expressed in transfected cells; host or cells: COS7 cells (African green monkey kidney)
Sequence (P37231 182-505): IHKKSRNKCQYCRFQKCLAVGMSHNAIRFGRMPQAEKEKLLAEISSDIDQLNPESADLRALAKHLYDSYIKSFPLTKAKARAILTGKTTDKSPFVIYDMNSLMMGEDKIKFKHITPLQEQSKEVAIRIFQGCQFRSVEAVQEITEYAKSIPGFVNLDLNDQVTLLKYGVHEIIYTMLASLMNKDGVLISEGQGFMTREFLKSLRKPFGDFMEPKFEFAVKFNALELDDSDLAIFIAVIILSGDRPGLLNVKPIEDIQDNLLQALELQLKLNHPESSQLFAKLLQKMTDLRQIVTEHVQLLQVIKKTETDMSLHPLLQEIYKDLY
PROTOCOL_NOTES: PPARγ activation activity, Gal4-PPARγ2 LBD luciferase transfection assay using COS7 cells
Assay type: cell-based
SETTINGS: COS-7, 16 h; maximum activity strength relative to the maximum activity of rosiglitazone; read-out: % MAX vs Rosiglitazone
Lab book: enter the figure in %, no units written.

Previously resolved entries follow.
>  <COMPOUND>
CCCCc1nc(C)n(-c2ncc(OC)cn2)c(=O)c1Cc1cc(CCC)c(OC(C(=O)O)c2ccccc2)c(CCC)c1 (single isomer, unassigned; (-)) [Example 16]

>  <MEASURED_TARGET>
human PPARγ2 (Homo sapiens, UniProt P37231)

>  <Emax (%)>
44.4

$$$$
>  <COMPOUND>
CCCCc1nc(C)n(-c2ccccn2)c(=O)c1Cc1cc(CCC)c(OC(C(=O)O)c2ccccc2)c(CCC)c1 (stereo not drawn)

>  <MEASURED_TARGET>
human PPARγ2 (Homo sapiens, UniProt P37231)

>  <Emax (%)>
32

$$$$

Note: attention shifts to another entry.
Look up and report measured Emax for this entry: CCCCc1nc(C)n(Cc2ccccc2)c(=O)c1Cc1cc(CCC)c(OC(C(=O)O)c2ccccc2)c(CCC)c1 (stereo not drawn)
21.3

All values here come from patent US20120046308A1.
